System: Streptococcus pneumoniae 1/1
Assay: MIC against Streptococcus pneumoniae 1/1
Type: cell-based
Conditions: Table 2; Streptococcus pneumoniae 1/1, trimethoprim- and penicillin-resistant, serotype 6; clinical isolate; read-out: MIC Sp1/1
propertyLabel: MIC (µg/mL)
Please reply with the bare figure in µg/mL and do not write the unit itself.

compound | unitName | MIC
CCOc1cc(Cc2cnc(N)nc2N)cc(OS(=O)(=O)C2CC2)c1-c1ccc(N)c(C)c1 | µg/mL | 1
CCOc1cc(Cc2cnc(N)nc2N)cc(OS(=O)(=O)N(C)C)c1-c1ccc(S(C)(=O)=O)cc1 | µg/mL | 8
CCOc1cc(Cc2cnc(N)nc2N)cc(OS(C)(=O)=O)c1-c1cccc(N)c1 | µg/mL | 4
CCOc1cc(Cc2cnc(N)nc2N)cc(OS(=O)(=O)N(C)C)c1-c1cc(N)cc(F)c1 | µg/mL | 2
CCOc1cc(Cc2cnc(N)nc2N)cc(OCC)c1-c1ccc(CN2CCOCC2)s1 | µg/mL | 2
CCOc1cc(Cc2cnc(N)nc2N)cc(OCC(F)(F)F)c1-c1cccc(N)c1 | µg/mL | 4
CCOc1cc(Cc2cnc(N)nc2N)cc(OCC)c1-c1cnc(CN2CCOCC2)nc1 | µg/mL | 8
CCOc1cc(Cc2cnc(N)nc2N)cc(OCC)c1-c1ccc(N)c(C#N)c1 | µg/mL | 2

Input line: Jot down MIC (Streptococcus pneumoniae 1/1) of CCOc1cc(Cc2cnc(N)nc2N)cc(OCC)c1-c1cccc(C#N)c1 .
Output line: 4

Input line: Report measured MIC on Streptococcus pneumoniae 1/1; entry: CCOc1cc(Cc2cnc(N)nc2N)cc(OS(=O)(=O)N(C)C)c1-c1ccc(OC)cc1
Output line: 2

Input line: Tell me its MIC on Streptococcus pneumoniae 1/1: CCOc1cc(Cc2cnc(N)nc2N)cc(OCC)c1-c1cccc(NS(C)(=O)=O)c1
Output line: 2

Input line: Tell me MIC of CCOc1cc(Cc2cnc(N)nc2N)cc(OCC)c1-c1cnc(N2CCOCC2)nc1 when tested on Streptococcus pneumoniae 1/1.
Output line: 4

Input line: Name the recorded MIC of CCOc1cc(Cc2cnc(N)nc2N)cc(OS(=O)(=O)C2CCC2)c1-c1ccc(CN2CCOCC2)c(N)c1 , assay system Streptococcus pneumoniae 1/1.
Output line: 2

Input line: Please report MIC with Streptococcus pneumoniae 1/1 for item CCOc1cc(Cc2cnc(N)nc2N)cc(OS(=O)(=O)CC2CCCO2)c1-c1ccc(N)c(F)c1 (stereo not shown) .
Output line: 2

Input line: // fetch MIC; item: CCOc1cc(Cc2cnc(N)nc2N)cc(OCC)c1-c1ccc(C)c(N)c1 ; system: Streptococcus pneumoniae 1/1
Output line: 4

Input line: Please tell me the measured MIC for CCOc1cc(Cc2cnc(N)nc2N)cc(OS(=O)(=O)CC(C)C)c1-c1ccc(OCCO)cc1 ; system: Streptococcus pneumoniae 1/1.
Output line: 0.5

###

System: Staphylococcus aureus 101
Test: MIC against Staphylococcus aureus 101
Type: cell-based
Details: Table 2; Staphylococcus aureus 101, MRSA- and trimethoprim-resistant; clinical isolate; read-out: MIC Sa101
Below, each entry is listed alongside its reported MIC.
Reply numerically in µg/mL, unit not repeated.

Reference set (5 entries):
molecule | propertyLabel | unitName | dataValue
CCOc1cc(Cc2cnc(N)nc2N)cc(OCC2(CC#N)CC2)c1-c1cccc(N)c1 | MIC | µg/mL | 8
CCOc1cc(Cc2cnc(N)nc2N)cc(OCC)c1-c1ccc(OC)c(COC)c1 | MIC | µg/mL | 8
CCOc1cc(Cc2cnc(N)nc2N)cc(OS(=O)(=O)N(C)C)c1-c1ccccc1 | MIC | µg/mL | 1
CCOc1cc(Cc2cnc(N)nc2N)cc(OCC)c1-c1ccc(N)cc1 | MIC | µg/mL | 8
CCOc1cc(Cc2cnc(N)nc2N)cc(OS(=O)(=O)C2CCOCC2)c1-c1cccc(N)c1 | MIC | µg/mL | 4

Input line: Identify measured MIC corresponding to CCOc1cc(Cc2cnc(N)nc2N)cc(OCC2CC2)c1-c1ccc(CN2CCOCC2)s1
Output line: 8

Input line: Note MIC for the molecule shown: CCOc1cc(Cc2cnc(N)nc2N)cc(OCC)c1-c1ccc(CN2CCOCC2)c(F)c1
Output line: 8

Ref: patent US6821980B1
